B1: BTBD1 (parent)
chain: IVGFGLYGSIHGPTDYQVNIQIIE

- Variants of: B1
- assay-details: protein stability index of a GFP-peptide fusion (GPS, HEK-293T) (PSI 1-6); higher = more stable;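 also: lentivirally expressed fusions sorted by FACS into six bins by GFP to DsRed ratio, PSI derived from sequencing read proportions per bin multiplied by bin number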
- condition-set: c terminus: a fixed tail appended
// false (0) strictly below 3 in protein stability index; true (1) otherwise

construct-sequence: IVGLGLYGSIHGPTDYQVNIQIIE [F4L]
assigned-label: true (1)

construct-sequence: IVGFGLYKSIHGPTDYQVNIQIIE [G8K]
assigned-label: false (0)

construct-sequence: IVGFGLYGSIHGPTDYQVNIQIRE [I23R]
assigned-label: false (0)

construct-sequence: IVGFGLYGSIHGPTDYQVMIQIIE [N19M]
assigned-label: true (1)

construct-sequence: IVGFGLYGSIHGPTDYQVQIQIIE [N19Q]
assigned-label: false (0)

construct-sequence: IVGFGLYGSIHGPHDYQVNIQIIE [T14H]
assigned-label: false (0)

construct-sequence: IVGFGLYGSIHGPCDYQVNIQIIE [T14C]
assigned-label: false (0)

construct-sequence: IVGFGLYGSIHGPTDYQVNIQIIA [E24A]
assigned-label: false (0)

construct-sequence: IVGFGLYGSIHGPTDYQVNIQPIE [I22P]
assigned-label: true (1)

construct-sequence: IVGFGLYGSIHGPTDYQVNIQDIE [I22D]
assigned-label: false (0)

construct-sequence: IVGFGLYGSIHGPTDYCVNIQIIE [Q17C]
assigned-label: false (0)

Reference source for all entries: the supplement of paper PMC10567573
